Molecular target: T1, ヒト組織因子経路インヒビター (human TFPI) (human, UniProt P10646 29-304, limits assumed)
T1 construct: Coated on Maxisorp plates (ELISA) or amine-coupled to a CM5 chip (Biacore); also called ヒトTFPI; hTFPI
T1 sequence (looked up): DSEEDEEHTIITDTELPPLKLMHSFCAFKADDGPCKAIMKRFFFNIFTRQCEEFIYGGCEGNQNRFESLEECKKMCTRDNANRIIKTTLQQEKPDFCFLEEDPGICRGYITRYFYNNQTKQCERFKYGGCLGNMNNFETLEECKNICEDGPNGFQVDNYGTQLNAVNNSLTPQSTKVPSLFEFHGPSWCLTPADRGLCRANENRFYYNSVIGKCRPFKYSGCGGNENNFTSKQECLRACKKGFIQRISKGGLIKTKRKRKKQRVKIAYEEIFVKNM
Assay: ELISA, Fab in bacterial lysate on human TFPI-coated plate

>  <Binder>
TP-3H2 (Fab, V domains shown, Human Fab (HuCal Gold), made in E. coli TG1) VH: QVQLVESGGGLVQPGGSLRLSCAASGFTFNSYYMSWVRQAPGKGLEWVSNISSSGSNTNYADSVKGRFTISRDNSKNTLYLQMNSLRAEDTAVYYCARVHYGFDFWGQGTLVTVSS VL: DIELTQPPSVSVAPGQTARISCSGDKLGKYYAYWYQQKPGQAPVLVIYGDSKRPSGIPERFSGSNSGNTATLTISGTQAEDEADYYCSSAAFGSTVFGGGTKLTVLG

>  <binding result>
binds

$$$$
>  <Binder>
TP-3E1 (Fab, V domains shown, Human Fab (HuCal Gold), made in E. coli TG1) VH: QVQLVESGGGLVQPGGSLRLSCAASGFTFSNYAMTWVRQAPGKGLEWVSVISSVGSNTYYADSVKGRFTISRDNSKNTLYLQMNSLRAEDTAVYYCARPTKAGRTWWWGPYMDVWGQGTLVTVSS VL: DIELTQPPSVSVAPGQTARISCSGDNIGSYYAYWYQQKPGQAPVLVIYDDSNRPSGIPERFSGSNSGNTATLTISGTQAEDEADYYCQSYDSTGLLVFGGGTKLTVLG

>  <binding result>
binds

$$$$
>  <Binder>
TP-3D3 (Fab, V domains shown, Human Fab (HuCal Gold), made in E. coli TG1) VH: QVQLVESGGGLVQPGGSLRLSCAASGFTFSSYASWVRQAPGKGLEWVSGISGDGSNTHYADSVKGRFTISRDNSKNTLYLQMNSLRAEDTAVYYCARYDNFYFDVWGQGTLVTVSS VL: DIELTQPPSVSVAPGQTARISCSGDSLGSKFAHWYQQKPGQAPVLVIYDDSNRPSGIPERFSGSNSGNTATLTISGTQAEDEADYYCSTYTSRSHSYVFGGGTKLTVLG

>  <binding result>
binds

$$$$

Cited source for all entries: patent JP2016028048A
